UO-31 renal GI50 data

CCCCCCCCCCCCCCCCCC1=NCCN1CS(=O)(=O)O ... 6280 nM
CC(=O)c1ccc(NC(=O)CSc2nnc(-c3cc(-c4ccc(C)cc4)nc4ccccc34)o2)cc1 ... 1750 nM
CS(=O)CCCCCN=C=S (stereo unspecified) ... 4000 nM
CCN(CC)CCCNc1cccc2c(SCc3ccccc3)ccnc12 ... 828 nM
CCCCCCCC/C=C/CCCCCCCCC1=NCCN1CCO ... 1760 nM

Now consider a different molecule.
What measured GI50 goes with "CCOC(=O)c1sc2nc3sc(N=Nc4ccc(Cl)cc4)c(O)n3c(=S)c2c1C" ? 53600 nM

* * *

Property: TGI; scope: individual compounds
# System: SW-620 colon
# test.protocol: NCI tumour cell line growth inhibition, 48 h
Supply the numeric figure in µM, leaving out any unit text.

Cc1ccc(NC(=O)c2cccc([N+](=O)[O-])c2O)c([N+](=O)[O-])c1 ... 39.5

What measured TGI goes with CC1OC(OC2C(O[C@H]3CC[C@@]4(C)[C@@H](CC[C@@H]5[C@@H]4CC[C@]4(C)[C@@H]6[C@H](C[C@@H]54)O[C@]4(CC[C@@H](C)CO4)[C@H]6C)C3)OC(CO)C(OC3OC(CO)C(O)C(OC4OCC(O)C(O)C4O)C3OC3OCC(O)C(O)C3O)C2O)C(O)C(O)C1O (stereo not given in full) ? 0.348

* * *

# System: IGROV1 ovarian
# test.protocol: NCI tumour cell line growth inhibition, 48 h
observation.type: TGI (µM)
Supply the numeric figure in µM, leaving out any unit text.

Some compounds with known TGI results, for comparison:
CCCCCCCC/C=C/CCCCCCCC1=NCC[N+]1(CCO)CCO ... 3.35
CCCC/C=C/C1Cc2ccccc2CN1S(=O)(=O)c1ccc(C)cc1 (stereo not given) ... 26.9
Cc1ccc(-c2c(C#N)c(S)n(NS(=O)(=O)c3ccc(C)cc3)c(=O)c2C#N)cc1 ... 51.1
CCCCC(=O)Nc1ccc2cc(C(=O)OC)c(ON3C(=O)c4ccccc4C3=O)nc2n1 ... 41

What measured TGI goes with "CC(=O)Nc1ccc(Sc2ccc([N+](=O)[O-])o2)cc1" ? 4.27

* * *

Property: TGI; scope: individual compounds
# Tested on: MCF7 breast
# test.protocol: NCI tumour cell line growth inhibition, 48 h

Some compounds with known TGI results, for comparison:
CCSCC(N)C(=O)O (stereo unspecified) ... > 100 µM
CCCCCNc1nonc1N ... > 100 µM
CC(=O)OC1CC(n2cc(F)c(=O)[nH]c2=O)OC1CO (stereo unspecified) ... > 28.3 µM
CC(OC(=O)NCn1cc(-c2ccccc2)nn1)c1ccccc1 (stereo unspecified) ... > 100 µM
Cc1[nH]c(=O)nc(N/N=C/c2ccc(Cl)cc2)c1C(=O)NC(C)(CO)CO ... > 100 µM

What measured TGI goes with CC(C)C1(C)N=C(C(F)(F)F)c2cc(C(=O)C(F)(F)F)c3ccccc3c2N1 (stereo unspecified) ? 14.7 µM

* * *

# Tested on: IGROV1 ovarian
# test.protocol: NCI tumour cell line growth inhibition, 48 h
observation.type: TGI

Some molecules with known TGI results, for comparison:
COc1ccc(Nn2c(SCC(=O)Nc3nc(-c4ccc(Cl)cc4)cs3)nc(C)c2C)cc1 ... > 100 µM
CCOC(=O)C(=O)Nc1ccc(C)cc1C ... > 100 µM
CCCc1c(OC)c(=O)c2c(OC)cc(OC)c3c4c(OC)cc(OC)c5c(=O)c(OC)c(CCC)c(c1c23)c54 ... 34.8 µM

What measured TGI goes with "Cc1ccc(NC(=O)NC(=O)c2ccc([N+](=O)[O-])cc2[N+](=O)[O-])cc1Oc1ncc(Cl)cn1" ? 29.7 µM

What measured TGI goes with "CN(C)c1ccc(N=Cc2c([O-])ccc3ccccc23)cc1.[C-]#[O+].[C-]#[O+].[Ir]" ? 65 µM

What measured TGI goes with "COc1ccc(C(=O)c2ccc(OC)c(OC)c2OC)cc1" ? > 100 µM

What measured TGI goes with "Cc1c(CCOC=O)c(=O)[nH]c2nncn12" ? > 100 µM

What measured TGI goes with "N#Cc1c(-c2ccc(Cl)cc2)n(O)c2ccccc12" ? 8.52 µM

What measured TGI goes with "CC(C)(C)c1ccc(-c2nc3ccc([N+](=O)[O-])cc3c(=O)o2)cc1" ? > 100 µM

What measured TGI goes with "CCCCCCOc1ccc(C(=O)NOCc2ccccc2)cc1" ? > 100 µM

What measured TGI goes with "C=C/C=C(\NC(=O)C(Cl)(Cl)Cl)[Si](C)(C)C" ? > 100 µM

What measured TGI goes with COC1(OC)CC2C=C(S(=O)(=O)c3ccccc3)C1N(Cc1ccccc1)C2=O (centres undefined) ? > 100 µM

What measured TGI goes with O=c1[nH]c(=O)n(C2CC(O)C(CO)O2)cc1OCCCc1ccccc1 (centres undefined) ? > 100 µM

What measured TGI goes with "Cc1ccc(NC(=O)c2cccc([N+](=O)[O-])c2O)c([N+](=O)[O-])c1" ? 44.9 µM

What measured TGI goes with C1CCN(CCC2CCCCN2)CC1 (centres undefined) ? > 100 µM

What measured TGI goes with "CSc1nc(-c2cc3c(c(SC)n2)CCCCC3)cc2c1CCCCC2" ? 85.9 µM

What measured TGI goes with O=C(CC(=O)N1N=C(N2CCCCC2)CC1c1ccccc1)Nc1ccc(Cl)cc1 (centres undefined) ? > 100 µM

What measured TGI goes with "Brc1ccc(-c2nnc(-c3nn(-c4ccccc4)c4nc5ccccc5nc34)o2)cc1" ? > 100 µM

What measured TGI goes with COC(=O)C(O)P(=O)(OC)OC (centres undefined) ? > 100 µM

* * *

Property: GI50; scope: individual compounds
# Test system: SF-268 CNS
# test.protocol: NCI tumour cell line growth inhibition, 48 h

Some compounds with known GI50 results, for comparison:
CC(=O)Nc1ccc(Sc2ccc([N+](=O)[O-])o2)cc1 ... 3.16 µM
CCN(CC)CCCNc1cccc2c(SCc3ccccc3)ccnc12 ... 1.51 µM
CC(=O)c1ccc(NC(=O)CSc2nnc(-c3cc(-c4ccc(C)cc4)nc4ccccc34)o2)cc1 ... 3.12 µM

Now consider a different compound.
What measured GI50 goes with "N#Cc1c(-c2ccc(Cl)cc2)n(O)c2ccccc12" ? 2.6 µM

* * *

# Test system: OVCAR-3 ovarian
# test.protocol: NCI tumour cell line growth inhibition, 48 h; in the data active = GI50 below about 0.43 µM; inactive = the rest
Select the matching outcome among class 1 for active, class 0 for inactive

Below, 10 compounds whose answers are already recorded.
CC(C)CCOc1ccc(-c2n[nH]c(C(F)(F)F)c2-c2cncc(C#N)c2)c(O)c1 ... class 0
CN(C)c1ccc(N=Cc2c([O-])ccc3ccccc23)cc1.[C-]#[O+].[C-]#[O+].[Ir] ... class 0
COc1cc(NCCCCN=C(N)NC(N)=NC(C)C)c2ncccc2c1 ... class 1
NC(=NCCCOc1ccc(Cl)cc1)Nc1ccc(Cl)cc1 ... class 0
COc1ccc(Nn2c(SCC(=O)Nc3nc(-c4ccc(Cl)cc4)cs3)nc(C)c2C)cc1 ... class 0
O=C1OCC(c2cccs2)=C1Cl ... class 0
COc1cccc(C2C(C#N)=C(N)Oc3cc(N)ccc32)c1 (stereo not drawn) ... class 1
COCC1CCCN1c1ccc(/C=C(/C#N)C(N)=S)cc1 (stereo not drawn) ... class 0
CC(=O)Nc1ccc(Sc2ccc([N+](=O)[O-])o2)cc1 ... class 0
CN1CCCNc2c(c(=O)c2=O)NCCCN(C)CCCNc2c(c(=O)c2=O)NCCCN(C)CCCNc2c(c(=O)c2=O)NCCCN(C)CCCNc2c(c(=O)c2=O)NCCCN(C)CCCNc2c(c(=O)c2=O)NCCCN(C)CCCNc2c(c(=O)c2=O)NCCCN(C)CCCNc2c(c(=O)c2=O)NCCC1 ... class 0

Please let me know the test result on file for "CCN(CC)c1cc(/C=C/c2ccc(OC)c(OC)c2)nc2cc(F)c(F)cc12" . class 0

Please let me know the test result on file for "Cc1nc2sccn2c(=O)c1CCN1CCC(=C(c2ccc(F)cc2)c2ccc(F)cc2)CC1" . class 0

Please let me know the test result on file for NC(CSC(c1ccccc1)(c1ccccc1)c1ccc(Cl)cc1)C(=O)O (stereo not drawn) . class 1

Please let me know the test result on file for "Cc1cc2cc3cc(C)c(N(C)C)cc3nc2cc1N(C)C" . class 0

Please let me know the test result on file for "COc1ccc(NC(=O)n2nc(N)c3ccccc32)cc1OC" . class 0

Please let me know the test result on file for "CCN(CC)CCCNc1cccc2c(SCc3ccccc3)ccnc12" . class 0

Please let me know the test result on file for "Cc1cccc(Oc2nccc(-c3c(-c4ccc(F)cc4)ncn3C3CCNCC3)n2)c1C" . class 0

Please let me know the test result on file for "CC(=O)N1CC(Nc2ccc(OC(F)(F)F)cc2)=CC1=O" . class 0

Data origin, for the record: PubChem BioAssay (NCI)
